- Subject Of Test: Transcriptional activator protein LuxR (Aliivibrio fischeri, UniProt P12746)
- Sequence (P12746 whole entry): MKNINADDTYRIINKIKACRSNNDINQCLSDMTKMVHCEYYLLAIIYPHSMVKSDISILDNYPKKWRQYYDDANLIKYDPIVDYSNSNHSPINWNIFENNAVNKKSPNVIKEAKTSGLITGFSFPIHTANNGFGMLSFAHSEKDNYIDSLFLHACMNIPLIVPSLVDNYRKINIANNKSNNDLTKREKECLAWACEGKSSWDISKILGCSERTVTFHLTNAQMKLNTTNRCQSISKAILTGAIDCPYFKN
- Assay Protocol: Antagonist activity at Vibrio fischeri luxR receptor in presence of 5 uM 3-oxo-C6-HSL
Recorded pIC50 values for a group of molecules are listed next.
Schema: pIC50 number; meaning minus log10 of the concentration expressed in molar units.

Below: 3 molecules and their reported pIC50.
>  <Item Smiles>
CCCCCCC(=O)N[C@H]1CCOC1=O

>  <pIC50>
5.87

$$$$
>  <Item Smiles>
CCCCCCCCCC(=O)N[C@H]1CCOC1=O

>  <pIC50>
6.40

$$$$
>  <Item Smiles>
O=C(Cc1ccc(C(F)(F)F)cc1)N[C@H]1CCOC1=O

>  <pIC50>
6.21

$$$$

Switching to the query record.
// lookup pIC50 | system=Transcriptional activator protein LuxR (Aliivibrio fischeri, UniProt P12746) | key= CCCCCCCC(=O)N[C@H]1CCOC1=O 6.11
